Source of measurements: paper PMC6289755

biological target: TRIM25 CCD-SPRY (human, UniProt Q14258 189-630); assay: EMSA
Sequence (Q14258 189-630): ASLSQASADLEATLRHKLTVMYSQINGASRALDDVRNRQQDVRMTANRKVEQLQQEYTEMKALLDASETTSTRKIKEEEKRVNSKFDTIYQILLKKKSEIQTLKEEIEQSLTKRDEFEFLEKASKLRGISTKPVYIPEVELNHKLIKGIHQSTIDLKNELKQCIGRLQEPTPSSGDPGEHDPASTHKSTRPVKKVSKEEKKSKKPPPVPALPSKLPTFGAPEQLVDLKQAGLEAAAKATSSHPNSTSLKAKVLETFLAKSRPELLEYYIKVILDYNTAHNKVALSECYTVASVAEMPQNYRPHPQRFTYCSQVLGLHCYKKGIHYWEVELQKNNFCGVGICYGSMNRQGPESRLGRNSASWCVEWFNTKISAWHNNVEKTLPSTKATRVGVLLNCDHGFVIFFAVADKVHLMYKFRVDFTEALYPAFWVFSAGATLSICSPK
pKd: −log10 of the molar value.
OUTCOME_MEASURE: pKd

[[record]]
binder = "28-bp dsRNA, fluorescent (dsRNA) RNA 1: AUGGCUAGCUGGAGCCACCCGCAGUUCG RNA 2: CGAACUGCGGGUGGCUCCAGCUAGCCAU"
measured_result = 6.96

